Listing of entries alongside the reported shrunken log2 fold change.
Tested on: Escherichia coli TOP10
method summary: shrunken log2 fold change of peptide-encoding DNA abundance (4.5 h post-induction vs induction); higher = less antimicrobial activity (less host growth inhibition)
run parameters: time post-induction: 4.5 h; library: site-saturation at positions 5, 18, 19, 20
When you answer, write just the number.

// known answers, use as guide
INSERT INTO results (sequence_code, readout_type, reported_result) VALUES
  ('RRIRKRPPRLPRPRPRPVLKPRP', 'shrunken log2 fold change', 0.185),
  ('RRIRNRPPRLPRPRPRPSDRPRP', 'shrunken log2 fold change', -0.0382),
  ('RRIRSRPPRLPRPRPRPDKNPRP', 'shrunken log2 fold change', -0.105),
  ('RRIRQRPPRLPRPRPRPEAAPRP', 'shrunken log2 fold change', 0.751),
  ('RRIRVRPPRLPRPRPRPERHPRP', 'shrunken log2 fold change', -0.0734);

Summary for this sequence, `RRIRCRPPRLPRPRPRPFPHPRP` : shrunken log2 fold change is -0.175

GET /value?item= `RRIRVRPPRLPRPRPRPGFIPRP` &field=shrunken log2 fold change returns -0.202

* * *

Tested on: Escherichia coli TOP10
method summary: shrunken log2 fold change of peptide-encoding DNA abundance (4.5 h post-induction vs induction); higher = less antimicrobial activity (less host growth inhibition)
run parameters: time post-induction: 4.5 h; library: site-saturation at positions 5, 18, 19, 20
readout type: shrunken log2 fold change
# answer = number (no unit)

Below, each entry is followed by its recorded shrunken log2 fold change result.
INSERT INTO measurements (sequence_code, reported_result) VALUES
  ('RRIRRRPPRLPRPRPRPPFLPRP', 0.315),
  ('RRIRCRPPRLPRPRPRPPFWPRP', 0.649),
  ('RRIRERPPRLPRPRPRPSMCPRP', -0.409),
  ('RRIRFRPPRLPRPRPRPEPKPRP', 0.415),
  ('RRIRLRPPRLPRPRPRPNVVPRP', -0.19),
  ('RRIRGRPPRLPRPRPRPSKNPRP', 0.619),
  ('RRIRDRPPRLPRPRPRPRSYPRP', -0.0236),
  ('RRIRVRPPRLPRPRPRPISKPRP', -0.184);

Observed shrunken log2 fold change, Escherichia coli TOP10, `RRIRIRPPRLPRPRPRPPVSPRP` : -0.116

Record `RRIRVRPPRLPRPRPRPREHPRP` ; system Escherichia coli TOP10; shrunken log2 fold change = 0.322

Short answer on Escherichia coli TOP10 for `RRIRKRPPRLPRPRPRPQALPRP` , shrunken log2 fold change: 0.228

Param item: `RRIRFRPPRLPRPRPRPVQPPRP` ; param system: Escherichia coli TOP10; output shrunken log2 fold change: 0.246

Entry `RRIRPRPPRLPRPRPRPNYKPRP` ; assay system Escherichia coli TOP10; shrunken log2 fold change recorded at -0.537

# `RRIRFRPPRLPRPRPRPEVTPRP` with Escherichia coli TOP10: shrunken log2 fold change is -0.0331

* * *

As shown below, each of these sequences has a reported shrunken log2 fold change value.
Test system: Escherichia coli TOP10
method summary: shrunken log2 fold change of peptide-encoding DNA abundance (4.5 h post-induction vs induction); higher = less antimicrobial activity (less host growth inhibition)
run parameters: time post-induction: 4.5 h; library: site-saturation at positions 5, 18, 19, 20
Lab note: record the figure alone, no unit after it.

Record excerpt, results attached:
INSERT INTO measurements (sequence_code, reported_result) VALUES
  ('RRIRERPPRLPRPRPRPVFMPRP', -0.356),
  ('RRIRPRPPRLPRPRPRPVLTPRP', 0.0816),
  ('RRIRWRPPRLPRPRPRPSVWPRP', 0.218),
  ('RRIRCRPPRLPRPRPRPLIAPRP', -0.0852),
  ('RRIRCRPPRLPRPRPRPVENPRP', 0.112);

Entry under test: `RRIRERPPRLPRPRPRPEVAPRP` . Its shrunken log2 fold change was 0.907

Query `RRIRIRPPRLPRPRPRPWPDPRP` yields shrunken log2 fold change of -0.207

* * *

Tested on: Escherichia coli TOP10
method summary: shrunken log2 fold change of peptide-encoding DNA abundance (4.5 h post-induction vs induction); higher = less antimicrobial activity (less host growth inhibition)
run parameters: time post-induction: 4.5 h; library: site-saturation at positions 5, 18, 19, 20
readout type: shrunken log2 fold change
Just the number, please.

As a guide, the following entries are already answered.
INSERT INTO assay_data (sequence_code, tested_system, reported_result) VALUES
  ('RRIRWRPPRLPRPRPRPAQYPRP', 'Escherichia coli TOP10', 0.122),
  ('RRIRWRPPRLPRPRPRPFVPPRP', 'Escherichia coli TOP10', -0.266),
  ('RRIRHRPPRLPRPRPRPERNPRP', 'Escherichia coli TOP10', 0.036);

// `RRIRPRPPRLPRPRPRPNTTPRP` : shrunken log2 fold change value = -0.131

For record `RRIRARPPRLPRPRPRPGVGPRP` the listed shrunken log2 fold change is 0.805

# shrunken log2 fold change of `RRIRRRPPRLPRPRPRPHAEPRP` = 0.317

Field shrunken log2 fold change (entry `RRIRMRPPRLPRPRPRPQGVPRP` ) reads -0.0179

According to the records, this sequence `RRIRSRPPRLPRPRPRPDPLPRP` displays shrunken log2 fold change of 0.0174

Sure, the documented shrunken log2 fold change for `RRIRYRPPRLPRPRPRPHMFPRP` is 0.0171

Measured shrunken log2 fold change, `RRIRARPPRLPRPRPRPFGYPRP` : 0.167

The reported value for `RRIRQRPPRLPRPRPRPEANPRP` in terms of shrunken log2 fold change is 0.0119

`RRIRCRPPRLPRPRPRPCFGPRP` yielded shrunken log2 fold change of -0.137

Value of shrunken log2 fold change reported for the sequence `RRIRGRPPRLPRPRPRPYHRPRP` is -0.203

Given item `RRIRMRPPRLPRPRPRPGWDPRP` , the value recorded as its shrunken log2 fold change is 0.297

What the record says about `RRIRTRPPRLPRPRPRPVDFPRP` : shrunken log2 fold change is 0.231

The recorded shrunken log2 fold change for entry `RRIRCRPPRLPRPRPRPAAQPRP` equals 0.394

Record `RRIRTRPPRLPRPRPRPDAFPRP` , field shrunken log2 fold change: -0.014

Notebook: `RRIRKRPPRLPRPRPRPHHPPRP` , shrunken log2 fold change read as -0.123

Reported shrunken log2 fold change ( `RRIRSRPPRLPRPRPRPPKKPRP` ) = 0.282

Value of shrunken log2 fold change reported for the sequence `RRIRYRPPRLPRPRPRPCQGPRP` is -0.0126

# shrunken log2 fold change of `RRIRHRPPRLPRPRPRPIFGPRP` = -0.0177

Lab book: shrunken log2 fold change of `RRIRSRPPRLPRPRPRPRATPRP` noted as 0.301

* * *

Tested on: Escherichia coli TOP10;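 further: peptides expressed intracellularly from a pBAD plasmid library in pooled LB shake-flask culture, induced with 0.3% L-arabinose, DNA abundance read by NGS, three biological replicates, DESeq2 with apeglm shrinkage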
method summary: shrunken log2 fold change of peptide-encoding DNA abundance (4.5 h post-induction vs induction); higher = less antimicrobial activity (less host growth inhibition)
run parameters: time post-induction: 4.5 h; library: site-saturation at positions 5, 18, 19, 20
readout type: shrunken log2 fold change
Give the figure by itself; no unit, no explanation.

Worked cases, answers included:
INSERT INTO results (sequence_code, readout_type, reported_result) VALUES
  ('RRIRYRPPRLPRPRPRPACNPRP', 'shrunken log2 fold change', -0.238),
  ('RRIRMRPPRLPRPRPRPQWWPRP', 'shrunken log2 fold change', 0.245),
  ('RRIRWRPPRLPRPRPRPNQMPRP', 'shrunken log2 fold change', -0.0159),
  ('RRIRLRPPRLPRPRPRPDAWPRP', 'shrunken log2 fold change', 0.457),
  ('RRIRVRPPRLPRPRPRPDVHPRP', 'shrunken log2 fold change', -0.159);

Measured shrunken log2 fold change, `RRIRKRPPRLPRPRPRPRRVPRP` : 0.569

For this sequence ( `RRIRDRPPRLPRPRPRPTYCPRP` ), measured shrunken log2 fold change is -0.27

Item: `RRIRDRPPRLPRPRPRPEMTPRP` | shrunken log2 fold change: 0.679

Entry `RRIRYRPPRLPRPRPRPMDYPRP` ; shrunken log2 fold change = -0.218

// shrunken log2 fold change lookup, sequence = `RRIRTRPPRLPRPRPRPCYRPRP` , result: -0.0575

Entry `RRIRFRPPRLPRPRPRPVNFPRP` — recorded shrunken log2 fold change = -0.39

So, `RRIRARPPRLPRPRPRPIHIPRP` ? Its shrunken log2 fold change was -0.24

get_value(item= `RRIRKRPPRLPRPRPRPPCQPRP` , readout=shrunken log2 fold change) returns 0.47

Just so you know, measured shrunken log2 fold change for `RRIRKRPPRLPRPRPRPCYHPRP` came out at -0.339

Notebook: `RRIRQRPPRLPRPRPRPWQPPRP` , shrunken log2 fold change read as -0.00999

For reference, reported shrunken log2 fold change for `RRIRLRPPRLPRPRPRPELLPRP` stands at 0.335

`RRIRGRPPRLPRPRPRPPLMPRP` yielded shrunken log2 fold change of 0.717

For record `RRIRKRPPRLPRPRPRPHMHPRP` the listed shrunken log2 fold change is -0.186

Measured shrunken log2 fold change of `RRIRARPPRLPRPRPRPLQEPRP` : 0.604

# shrunken log2 fold change (sequence: `RRIRGRPPRLPRPRPRPLCDPRP` ) is 0.778

The reported shrunken log2 fold change of the sequence `RRIRTRPPRLPRPRPRPCFGPRP` was 0.000833

Please fill in: shrunken log2 fold change reported for `RRIRLRPPRLPRPRPRPIKYPRP` = 0.0258

Lab book: shrunken log2 fold change of `RRIRPRPPRLPRPRPRPEIWPRP` noted as 0.374
